Quick list: GI50 per entry.
test system: NCI-H460; assay: NCI tumour cell line growth inhibition, 48 h
The source made the active and inactive calls. Rule as the data show it: active = GI50 up to about 1.1 µM and inactive = higher. Square brackets hold non-standard residues; d marks the D form. Peptide text beside a SMILES is read from it. * marks the point of attachment. ξ: configuration not given here. NMeY = CN[C@@H](Cc1ccc(O)cc1)C(=O)O; Cbz = O=C(OCc1ccccc1)*; ξA = CC(N)C(=O)O

A selection of reference data follows.
[
  {
    "MOLECULE": "O=C1CSC2(CC(/C=C/c3ccccc3O)=NN2c2cccc(S(=O)(=O)O)c2)N1c1nc2ccccc2s1 (stereo not given)",
    "GI50": "34.1 µM (inactive)"
  },
  {
    "MOLECULE": "Cc1nc2ccc(F)cc2c2c1CCN2c1ccc(Cl)cc1",
    "GI50": "7.38 µM (inactive)"
  },
  {
    "MOLECULE": "COc1ccc(C[C@@H](C(=O)N[C@@H](C)C(N)=O)N(C)C(=O)[C@@H]2CCCN2C(=O)[C@H](CC(C)C)NC(=O)C(C)NC(=O)OCc2ccccc2)cc1 (stereo not given in full) (Cbz-[ξA]LP[NMeY](Me)A-NH2)",
    "GI50": "> 100 µM (inactive)"
  },
  {
    "MOLECULE": "CC(=O)O[C@H]1CC[C@@]2(C)C(=CC[C@@H]3C2CC[C@]2(C)Nc4nc5ccccc5cc4CC32)C1 (stereo not given in full)",
    "GI50": "4.57 µM (inactive)"
  }
]

Next, consider the following molecule.
Lookup: GI50 / NCI-H460 / O=C1c2nn(-c3ccccc3)nc2C(c2ccccc2)N1c1ccccc1 (stereo not given)
> 100 µM (inactive)

###

tested on: NCI/ADR-RES; experiment: NCI tumour cell line growth inhibition, 48 h
The source made the active and inactive calls. No stated cut-off is given here; in the data, active = GI50 up to about 1.1 µM and inactive = higher.
Please reply with one of these outcomes: active, inactive

[
  {
    "COMPOUND": "S=C1Cc2c(-c3ccc(Cl)cc3)cc(-c3ccccc3)nc2-c2ccccc2N1",
    "ASSIGNED_LABEL": "inactive"
  },
  {
    "COMPOUND": "COc1ccc2c(c1O)-c1c(OC)c(OC)cc3c1[C@H](C2)[N+](C)(C)CC3",
    "ASSIGNED_LABEL": "inactive"
  },
  {
    "COMPOUND": "Cc1cc2c3c([nH]c2c2ccnc(C)c12)CCCC3",
    "ASSIGNED_LABEL": "inactive"
  }
]

Hi, sorry to bother you, what did the test record for CC(C)(C)OC(=O)NCC(=O)NC1C/C(=N\O)c2sccc21 (centres undefined) ?
inactive

Hi, sorry to bother you, what did the test record for CCN(CCCl)c1cc(CN(C)C)cc(NC(=O)C23CCC(C(=O)Nc4cc(CN(C)C)cc(N(CC)CCCl)c4)(CC2)CC3)c1 ?
inactive

Hi, sorry to bother you, what did the test record for COc1ccc2c(CCN)c(C(=O)O)[nH]c2c1 ?
inactive

Hi, sorry to bother you, what did the test record for CC1OC2OC3C(OCC(O)C3O)OC(=O)[C@]34CCC(C)(C)CC3C3=CCC5[C@@]6(C)C[C@H](O)[C@H](OC7OC(CO)C(O)C(O)C7OC7OC(COC(=O)CC(C)(O)CC(=O)OC1C(O)C2O)C(O)C(O)C7O)[C@@](C)(CO)C6CC[C@@]5(C)[C@]3(C)CC4 (some centres undefined) ?
inactive

Hi, sorry to bother you, what did the test record for O=C(N/N=C\c1ccc([N+](=O)[O-])cc1)Nc1ccc2ccccc2c1 ?
inactive

Hi, sorry to bother you, what did the test record for Cc1ccnc2sc3ccccc3c(=O)c12 ?
inactive

Hi, sorry to bother you, what did the test record for O=C1CC[C@@]2(O)[C@H]3Cc4ccc(-c5ccccc5)c5c4[C@@]2(CCN3CC2CC2)[C@H]1O5 ?
inactive
